- target: MAPKAP-K2 (Homo sapiens, UniProt P49137)
- Sequence (P49137 whole entry): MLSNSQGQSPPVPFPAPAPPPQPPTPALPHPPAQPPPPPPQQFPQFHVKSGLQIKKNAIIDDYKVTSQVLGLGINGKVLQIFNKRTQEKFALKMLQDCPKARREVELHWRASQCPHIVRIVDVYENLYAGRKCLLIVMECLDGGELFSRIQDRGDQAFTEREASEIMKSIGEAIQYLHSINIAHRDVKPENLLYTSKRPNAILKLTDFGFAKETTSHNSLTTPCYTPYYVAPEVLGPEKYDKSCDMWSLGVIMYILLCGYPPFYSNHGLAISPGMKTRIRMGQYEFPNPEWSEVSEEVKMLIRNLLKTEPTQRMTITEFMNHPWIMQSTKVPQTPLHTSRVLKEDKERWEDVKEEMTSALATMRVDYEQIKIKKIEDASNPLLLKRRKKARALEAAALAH
- method: MAPKAP-K2 enzyme activity inhibition assay, Method B (33P-ATP, MultiScreen-PH plate)
- Format: biochemical
- run conditions: recombinant human MAPKAP-K2, 0.5% DMSO, 30 min room temperature, read-out: Inhibitory activity (MAPKAP-K2 IC50 class)
- Experimental: The assay of inhibitory activity was performed according to Method A described below for Compound No. 1, 2, 3, 4, 20, 21, 22, 23, 24, 25, 26, 79, 80 and 81, and Method B described below for the other compounds. A compound was dissolved in […] to make its concentration to 20 mmol/L, and the resultant solution was stored at −20° C. The stock solution was sequentially diluted with DMSO to prepare a solution having a 200-fold concentration of the required range. […]
pIC50: −log10 of the molar value.
endpoint name: pIC50

Examples with their reported pIC50 follow.
1) CCn1c2ccccc2c2cc(Nc3c(C)c(OC4CCCNC4)nc4ccnn34)ccc21 (centres unmarked)    4.70 to 5.70
2) CCc1c(O[C@H]2CC[C@@H](N)CC2)nc2ccnn2c1Nc1ccccc1F    4.70 to 5.70

// switching to the query compound
Q: Entry Cc1c(O[C@H]2CC[C@@H](N)CC2)nc2ccnn2c1Nc1ccc(OCCN2CCOCC2)cc1 has what pIC50?
A: ≥ 5.70
